- ASSAY: Components of the Cytosolic LPS Sensing Pathway: Gene Identification via Genome-wide siRNA Screen
- MEASUREMENT PARAMETERS: RAW264.7 macrophages, IL-1a HTRF, actives lie on both sides, screened at 100 nM (by protocol), cells primed 5 h with Pam3CSK4 first
Hit rate of the full screen: of about 53,000 sequences, about 3,700 (7%) were called active. The sample as a whole holds a higher share of actives than the screen did.
Listed next: entries and their corresponding z-score.
# respond with the number and nothing more

Consider the reported z-score for these sequences:
CHAIN SEQUENCE: GCAGCAGUGCUUACUUAACTT against Ccdc25
VALUE KIND: z-score
TEST RESULT: 0.212
//
CHAIN SEQUENCE: GGGUACAGUCCGAUACAGUTT against Nploc4
VALUE KIND: z-score
TEST RESULT: -1.79
//
CHAIN SEQUENCE: GGCACAAUUAGCUAAGAAUTT against Abi3bp
VALUE KIND: z-score
TEST RESULT: -1.87
//
CHAIN SEQUENCE: GGCAUUCACCAUACAAUGATT against Ufm1
VALUE KIND: z-score
TEST RESULT: 0.687

Moving on to another sequence below.
Problem: Query (sequence): GGAACUAACGGAAUUACUGTT against Arl3 ; field requested: z-score
Result: 0.951

* * *

- ASSAY: Components of the Cytosolic LPS Sensing Pathway: Gene Identification via Genome-wide siRNA Screen;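 also: robust z of the log signal after scaling to non-targeting control siRNA wells of the plate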
- MEASUREMENT PARAMETERS: RAW264.7 macrophages, IL-1a HTRF, actives lie on both sides, screened at 100 nM (by protocol), cells primed 5 h with Pam3CSK4 first
Out of some 53,000 sequences screened, about 3,700 (7%) were called active. The full list was thinned out, with actives kept by preference.
Listed next: entries and their corresponding z-score.
# respond with the number and nothing more

Consider the reported z-score for these sequences:
CHAIN SEQUENCE: GCCUAUCCGACAACUUAGUTT against Slc25a17
TEST RESULT: 0.136

CHAIN SEQUENCE: GGCUCAUGUAAGAUAAUUATT against Kcns3
TEST RESULT: -1.03

CHAIN SEQUENCE: GGAUGUGAAAUUCAAGCUUTT against Dhx34
TEST RESULT: -0.457

Moving on to another sequence below.
Problem: Query (sequence): CCAGUACAAAGCCACAAUATT against Rab7 ; field requested: z-score
Result: 5.54

* * *

- ASSAY: Components of the Cytosolic LPS Sensing Pathway: Gene Identification via Genome-wide siRNA Screen;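 also: robust z of the log signal after scaling to non-targeting control siRNA wells of the plate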
- MEASUREMENT PARAMETERS: RAW264.7 macrophages, IL-1a HTRF, actives lie on both sides, screened at 100 nM (by protocol), cells primed 5 h with Pam3CSK4 first
Screen size: about 53,000 sequences; about 3,700 (7%) were called active.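 The calls were made as follows: active = gene knockdowns whose robust z-score for IL-1 alpha signal is at least 2 or at most -2, so actives lie on both sides; inactive = the rest.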 The full list was thinned out, with actives kept by preference.
Permitted responses: active, inactive

The following sequences have reported results that may help.
CHAIN SEQUENCE: GGCUCGACUUGGAGAAAAGTT against Atg13
ASSIGNED LABEL: inactive
--
CHAIN SEQUENCE: CCGGAAACUUCCUACGUGUTT against Cbln1
ASSIGNED LABEL: inactive
--
CHAIN SEQUENCE: GGAGGAACAUAUCAAGGAATT against Tmem143
ASSIGNED LABEL: active
--
CHAIN SEQUENCE: CCCUAAGCUCUGUUCCCAGTT against Olfr371
ASSIGNED LABEL: inactive

Problem: Status in this test for GCCUGGUUUCUCCCUCAAATT against Pkmyt1 ?
Result: inactive

Problem: Status in this test for GGAUUUGUAAGACUAAUCUTT against Xdh ?
Result: inactive

Problem: Status in this test for GCACAUACAGAGCUCGUCUTT against Zkscan6 ?
Result: inactive

Problem: Status in this test for GGCAAGAUGAAUUAAAAUGTT against Gcfc2 ?
Result: inactive

Problem: Status in this test for CCAAAUCGCUUCACAUAAUTT against Atp6v1g2 ?
Result: inactive

Problem: Status in this test for GGAGCUGCUAUGUACACAUTT against Bptf ?
Result: inactive

Problem: Status in this test for GGAUCAGGAAGGAUUCGGATT against Zfp84 ?
Result: inactive

Problem: Status in this test for GCCACUUCACAGCAAGCUATT against Cdk2ap1 ?
Result: active

Problem: Status in this test for GGUUUUGGGUCUAUGCUUCTT against Sde2 ?
Result: inactive

* * *

- ASSAY: Components of the Cytosolic LPS Sensing Pathway: Gene Identification via Genome-wide siRNA Screen;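 also: robust z of the log signal after scaling to non-targeting control siRNA wells of the plate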
- MEASUREMENT PARAMETERS: RAW264.7 macrophages, IL-1a HTRF, actives lie on both sides, screened at 100 nM (by protocol), cells primed 5 h with Pam3CSK4 first
- Description: Non-canonical inflammasome activation by cytosolic LPS is a critical component of the host response to Gram-negative bacterial infection, however we lack a comprehensive understanding of the cellular processes that control this pathway. […] Lipofectamine RNAiMAX Transfection Reagent ([…]; Invitrogen) was added in […] serum-free, antibiotic-free media to plate wells using a Thermo Scientific Matrix WellMate and Microplate Stacker. […] The plates were read on an EnVision plate reader (PerkinElmer). […]
Hit rate of the full screen: of about 53,000 sequences, about 3,700 (7%) were called active. Shown is part of a subset that was picked to be rich in actives.
VALUE KIND: z-score
# respond with the number and nothing more

Consider the reported z-score for these sequences:
CHAIN SEQUENCE: GGAUGACCAUGAAAGCUGUTT against Vps13b
z-score: 1.87
//
CHAIN SEQUENCE: GGAGAUACUGAAAGAGGCCTT against C1qtnf12
z-score: -1.25
//
CHAIN SEQUENCE: CCCUAUUUGACAAAUUCCUTT against Cdo1
z-score: 0.245
//
CHAIN SEQUENCE: CCACUAAUCUUCUUCUACATT against Olfr1311
z-score: -2.08
//
CHAIN SEQUENCE: GGGCAUACAUAUAACCUAUTT against Fermt2
z-score: -0.285

Problem: Query (sequence): GGUGGUUACACAAGGAACATT against Phgdh ; field requested: z-score
Result: -0.314

Problem: Query (sequence): GGUCUAUGCGAUGCUAUACTT against Sarm1 ; field requested: z-score
Result: -0.508

Problem: Query (sequence): GGUCCCAGUCUAUGAAAACTT against Pym1 ; field requested: z-score
Result: 1.81

Problem: Query (sequence): GGUCCAUGGGUAAGAGGAUTT against Vmn1r43 ; field requested: z-score
Result: 1.2

Problem: Query (sequence): GGUUUAGAAUGCAUAACAGTT against Dzank1 ; field requested: z-score
Result: -0.217

Problem: Query (sequence): GGGCUUGUAGAUGUGCGUATT against Hic2 ; field requested: z-score
Result: 3.32

Problem: Query (sequence): GGACUUGAGUCAGCUCAUCTT against Fastk ; field requested: z-score
Result: -1.38

Problem: Query (sequence): GGACUUGGGUCAUUGUGAGTT against Grpel1 ; field requested: z-score
Result: -0.93

Problem: Query (sequence): GGGCCUCUUCCUUAAGCAUTT against Snx8 ; field requested: z-score
Result: -0.382

* * *

- ASSAY: Components of the Cytosolic LPS Sensing Pathway: Gene Identification via Genome-wide siRNA Screen;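 also: robust z of the log signal after scaling to non-targeting control siRNA wells of the plate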
- MEASUREMENT PARAMETERS: RAW264.7 macrophages, IL-1a HTRF, actives lie on both sides, screened at 100 nM (by protocol), cells primed 5 h with Pam3CSK4 first
In all, about 53,000 sequences went through this assay and about 3,700 (7%) were called active.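 The calls were made as follows: active = gene knockdowns whose robust z-score for IL-1 alpha signal is at least 2 or at most -2, so actives lie on both sides; inactive = the rest.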 Shown is part of a subset that was picked to be rich in actives.
Permitted responses: t = active, f = inactive

The following sequences have reported results that may help.
CHAIN SEQUENCE: GCCUGCUUAAGCUACUUAUTT against Fam210b
ASSIGNED LABEL: f
--
CHAIN SEQUENCE: GCCUUUAAUACAUAGGCUUTT against Cxcl9
ASSIGNED LABEL: f
--
CHAIN SEQUENCE: GCUUUUCACAUGAUGUGUUTT against Klrb1a
ASSIGNED LABEL: f
--
CHAIN SEQUENCE: GGUGUAGCUGGAAUUGGCATT against Nlrp4b
ASSIGNED LABEL: f
--
CHAIN SEQUENCE: GGCUUGAUUGCAUCUUUAUTT against Ebpl
ASSIGNED LABEL: f

Problem: Status in this test for GCACGAAGGUCGUUAUUAUTT against Wls ?
Result: f

Problem: Status in this test for GUUCCUGCUGAUCAAGGACTT against Nsmce3 ?
Result: f

Problem: Status in this test for CCAAAUGUAGCGGAACUGATT against Rsu1 ?
Result: f

Problem: Status in this test for GGAGAUCCUUCAUUACCUGTT against Psap ?
Result: f

Problem: Status in this test for CGAGGAUUUCUGUUACUUATT against Lyst ?
Result: f

Problem: Status in this test for CACGGUACAGUACGAUUGATT against Rcan2 ?
Result: f

Problem: Status in this test for GGAGACCCUGGUGAGAAGATT against Emid1 ?
Result: f

Problem: Status in this test for GCGAUGCUCCUAAUUCUUATT against Dusp21 ?
Result: f

Problem: Status in this test for GGAGUGAAGGGUCAUCCAGTT against Col9a2 ?
Result: t

Problem: Status in this test for CCUUAGGACAAGUAUUCUGTT against Cbx6 ?
Result: f

Problem: Status in this test for GGCUGACAGUAACAAGUGGTT against Fignl1 ?
Result: t

Problem: Status in this test for GGCUGCUAUCAUGGAAUUATT against Ppp2cb ?
Result: f

Recorded values, source PubChem BioAssay AID1508600.
